The measurements presented in this section are drawn from PubChem BioAssay (NCI).

Tested on: MDA-MB-231 breast
assay: NCI tumour cell line growth inhibition, 48 h
Measured TGI accompanies every entry in the list below.

1. O=C(N1CCN(c2ccccc2)CC1)N(C(=O)C1(c2ccc(Cl)cc2)CCCC1)S(=O)(=O)c1ccccc1 | 74.5 µM

Ask: Look up TGI: `CCCCCCCCC(=O)NCCN(CCN)C(=O)CCCCCCCC`
Result: 10.3 µM

Ask: Look up TGI: `O=S1(=O)C=C(c2ccccc2)C(c2ccccc2)=C1`
Result: 3.09 µM

Ask: Look up TGI: COC(=O)C1=C(O)C(C(=O)OC)[C@@]2(O)[C@@H](C(=O)OC)C(c3ccccc3Cl)C[C@@H]1[C@@H]2C(=O)OC (stereo partly specified)
Result: 20.7 µM

Ask: Look up TGI: `NS(=O)(=O)c1ccc(N=Nc2c(=O)[nH]c3ccc4[nH]cccc4c23)cc1`
Result: > 7.89 µM

Ask: Look up TGI: `COc1cc(OC)c2c(c1Cl)O[C@]1(C2=O)C(OCc2ccccc2)=CC(=O)C[C@H]1C`
Result: 5.02 µM

Ask: Look up TGI: `O=C(CSCC(=O)N/N=C/c1ccncc1)N/N=C/c1ccncc1`
Result: > 100 µM

Ask: Look up TGI: `CCC(=O)Oc1ccc(/C=N/NC(N)=S)nc1`
Result: > 100 µM

Ask: Look up TGI: `CC(=O)Oc1cc2c(n(C)c1=O)CCC2`
Result: > 100 µM

Ask: Look up TGI: `N#CC(CC(=O)O)=C(c1ccccc1)c1ccccc1`
Result: > 100 µM

Ask: Look up TGI: `S=c1sscc1N1CCSc2ssc(=S)c21`
Result: > 100 µM

Ask: Look up TGI: `Cc1cc(C)nc(NS(=O)(=O)c2ccc(NC(=O)c3ccc4nc5ccccc5c(Nc5ccc(S(=O)(=O)Nc6nc(C)cc(C)n6)cc5)c4c3)cc2)n1`
Result: 53.9 µM

Ask: Look up TGI: CC(=O)Nc1ccc2c3c(cc(O)c2c1)N(C(=O)CCCCCC(=O)Nc1ccc2c4c(cc(O)c2c1)N(C(=O)OC(C)(C)C)CC4CCl)CC3CCl (stereo unspecified)
Result: 18.5 µM

Ask: Look up TGI: `CN1C(=O)C(C)(C)Oc2c(-c3cn(C)c(=O)c4[nH]ccc34)cc(S(C)(=O)=O)cc21`
Result: > 100 µM

Ask: Look up TGI: CN1C(=O)C(O)C[C@@H]1c1ccc(F)cc1 (stereo partly specified)
Result: > 100 µM

Ask: Look up TGI: `O=C(O)CSc1nnc2c3ccccc3c3ccccc3c2n1`
Result: > 100 µM
